Recorded values, source the supplement of paper PMC10567573.

B1: ANKRD40 (parent)
chain: SLRENDFIEIELDRQELTYQELLR

variants of: B1; assay: protein stability index of a GFP-peptide fusion (GPS, HEK-293T) (PSI 1-6); higher = more stable; details: c terminus: a fixed tail appended;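 note: lentivirally expressed fusions sorted by FACS into six bins by GFP to DsRed ratio, PSI derived from sequencing read proportions per bin multiplied by bin number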
Label scheme for protein stability index: lower than 3 is -1, 3 and above is 1.

For orientation, consider the following solved cases.
L23V :: 1
E11T :: -1
T18P :: 1
E4T :: -1
L12Y :: 1

Q: Reported protein stability index reaches at least 3 for `S1Q` ?
Result: 1

Q: Determine whether this variant has protein stability index no lower than 3: `L12G`
Result: 1

Q: State whether the measured protein stability index reaches 3, counting equality as reaching it, for `D6S`
Result: -1

Q: Could you verify whether the entry `R24E` shows protein stability index of no less than 3?
Result: 1

Q: Could you please find out whether `R3E` has protein stability index that meets 3 or exceeds it?
Result: -1

Q: Decide: protein stability index of `Q15M` >= 3?
Result: -1

Q: Is reported protein stability index greater than or equal to 3 here: `E9A`
Result: -1

Q: Check if protein stability index >= 3 (inclusive). Item: `E4A`
Result: -1
